- Method Summary: Quantitative High-Throughput drug screen in 47 multiple myeloma cell lines against the NCATS MIPE library collection: AMO1_DSMZ cell viability assay (AID 1918927; further: nearly all actives have a fitted effect of over 30% in size)
- Assay Conditions: AMO1 myeloma cells viability, CellTiter-Glo ATP luminescence, 48 h; series mostly up to 45.8 µM
Results filed as inconclusive are left out. Calls of active or inactive are those of the source. The call rests on the fitted dose curve; in most records, active means well fitted cell-killing curve with a large enough effect; inconclusive means small, poorly fitted or top-dose-only effect, or effect the other way; inactive means no such curve, though single readings can be large or run the other way.
Tick one outcome: 1 for active, -1 for inactive

For orientation, consider the following solved cases.
-- ask Name the outcome recorded for O=C(c1cncc(Br)c1)N1CCC(N2CCCC2)CC1 in the assay.
-- reply -1

-- ask Name the outcome recorded for CC(C)c1cc(-c2n[nH]c(=O)n2-c2ccc3c(ccn3C)c2)c(O)cc1O in the assay.
-- reply 1

-- ask Name the outcome recorded for C=CC(=O)Nc1cccc(Oc2nc(Nc3ccc(N4CCN(C)CC4)cc3)ncc2Cl)c1 in the assay.
-- reply 1

More entries:
-- ask Name the outcome recorded for Cn1c2ccccc2c2c3c(c4c5ccccc5n(CCC#N)c4c21)CNC3=O in the assay.
-- reply 1

-- ask Name the outcome recorded for c1ccc2c(CCNc3ccc(Nc4ccncc4)cc3)c[nH]c2c1 in the assay.
-- reply 1

* * *

- Method Summary: Quantitative High-Throughput drug screen in 47 multiple myeloma cell lines against the NCATS MIPE library collection: MOLP8_DSMZ cell viability assay (AID 1918977); further: nearly all actives have a fitted effect of over 45% in size
- Assay Conditions: MOLP8 myeloma viability, CellTiter-Glo ATP luminescence, 48 h; series mostly up to 45.8 µM
- Description: PI: Beverly A. Mock Ph.D. Laboratory of Cancer Biology and Genetics, Center for Cancer Research, National Cancer Institute, National Institute of Health, Bethesda, Maryland […] 5; Detector; 425V; Luminescence; Viewlux PerkinElmer. […] 1. […] Briefly, the corresponding myeloma cell lines were screened in 1,536-well plates with 500 cells, 5-uL per well for inhibition of cell viability (assessed by measuring ATP levels with CellTiterGlo). […]
Records with an inconclusive call do not appear. Activity calls are given as the source filed them. Calls come from the whole dose curve; as a rule, active = well fitted cell-killing curve with a large enough effect; inconclusive = small, poorly fitted or top-dose-only effect, or effect the other way; inactive = no such curve, though single readings can be large or run the other way.
Tick one outcome: Y = active, N = inactive

For orientation, consider the following solved cases.
-- ask Name the outcome recorded for COc1cc2ncnc(Nc3ccc(F)c(Cl)c3)c2cc1NC(=O)C=CCN1CCCCC1 in the assay.
-- reply Y

-- ask Name the outcome recorded for CCCn1c(=O)c2[nH]c(-c3cnn(Cc4cccc(C(F)(F)F)c4)c3)nc2n(CC)c1=O in the assay.
-- reply Y

-- ask Name the outcome recorded for CCCNC(=O)Nc1ccc(Oc2ncnc3cc(OC)c(OC)cc23)cc1Cl in the assay.
-- reply N

-- ask Name the outcome recorded for CC(C)[C@H](C(=O)Nc1ccc(C(=O)NO)cc1)c1ccccc1 in the assay.
-- reply Y

-- ask Name the outcome recorded for CCN(CC)CCNC(=O)c1ccc2nc(-c3ccccc3)c(-c3ccc(CN4CCC(n5c(=O)[nH]c6ccccc65)CC4)cc3)nc2c1 in the assay.
-- reply Y

More entries:
-- ask Name the outcome recorded for CC[C@@H]1C(=O)N(C)c2cnc(Nc3ccc(C(=O)NC4CCN(C)CC4)cc3OC)nc2N1C1CCCC1 in the assay.
-- reply Y

-- ask Name the outcome recorded for Cc1ccc(C(=O)Nc2cccc(C(F)(F)F)c2)cc1-c1ccc2nc(NCCN3CCOCC3)ncc2c1 in the assay.
-- reply Y

-- ask Name the outcome recorded for CNC(=O)c1ccccc1Nc1nc(Nc2ccc(N3CCOCC3)cc2OC)ncc1Cl in the assay.
-- reply Y

* * *

- Method Summary: Identifying Small Molecule Inhibitors of Pancreatic Cancer Stem Cells (Panc1, Adherent) (AID 1259362)
- Assay Conditions: viability; series mostly up to 46.1 µM
Records with an inconclusive call do not appear. The source made the active and inactive calls. Calls follow the shape of the dose curve; as a rule, active = well fitted cell-killing curve with a large enough effect; inconclusive = small, poorly fitted or top-dose-only effect, or effect the other way, or another doubt; inactive = no such curve, though single readings can be large or run the other way.
Tick one outcome: active, inactive

For orientation, consider the following solved cases.
-- ask Name the outcome recorded for Clc1ccc2ncc(-c3cccc(NC4CNC4)n3)n2c1 in the assay.
-- reply inactive

-- ask Name the outcome recorded for Cc1[nH]nc2ccc(-c3cncc(OC[C@@H](N)Cc4ccccc4)c3)cc12 in the assay.
-- reply active

-- ask Name the outcome recorded for COc1cccc2nc(-c3cccs3)nc(NN3C(=O)C=C(C)C3=O)c12 in the assay.
-- reply active

-- ask Name the outcome recorded for Cc1[nH]c2ccccc2c1CCNCc1ccc(C=CC(=O)NO)cc1 in the assay.
-- reply active

-- ask Name the outcome recorded for Cc1ccc(C(=O)Nc2ccc(CN3CCN(C)CC3)c(C(F)(F)F)c2)cc1C#Cc1cnc2cccnn12 in the assay.
-- reply active

-- ask Name the outcome recorded for CC(NCc1ccc2c(c1)nc(NC(=O)c1ccc(-c3cn[nH]c3)s1)n2CC(C)(C)O)C(C)(C)C (stereo not given) in the assay.
-- reply active

-- ask Name the outcome recorded for O=C(O)[C@H](Cc1c[nH]c2ccccc12)N1C(=O)c2ccccc2C1=O in the assay.
-- reply inactive

-- ask Name the outcome recorded for CC(C)C[C@H](NC(=O)CNC(=O)c1cc(Cl)ccc1Cl)B(O)O in the assay.
-- reply active

More entries:
-- ask Name the outcome recorded for Nc1cc(C(F)(F)F)c(-c2cc(N3CCOCC3)nc(N3CCOCC3)n2)cn1 in the assay.
-- reply active

-- ask Name the outcome recorded for C=CC(=O)Nc1cccc(Oc2nc(Nc3ccc(N4CCN(C)CC4)cc3OC)ncc2Cl)c1 in the assay.
-- reply inactive

-- ask Name the outcome recorded for Cc1cnc(Nc2ccc(F)cc2Cl)nc1-c1c[nH]c(C(=O)N[C@H](CO)c2cccc(Cl)c2)c1 in the assay.
-- reply active

* * *

- Tested on: AA1029
- Method Summary: qHTS profiling for inhibitors of Plasmodium falciparum proliferation (AID 504749); further: nearly all actives have a fitted effect of over 60% in size
- Assay Conditions: P. falciparum in erythrocytes, SYBR Green DNA, 72 h; series mostly up to 28.7 µM
Results filed as inconclusive are left out. Calls of active or inactive are those of the source. The call rests on the fitted dose curve; in most records, active means well fitted inhibition curve with a large enough effect; inconclusive means small, poorly fitted or top-dose-only effect; inactive means flat fitted curve, though single readings scatter.
Tick one outcome: 1 = active, 0 = inactive

For orientation, consider the following solved cases.
-- ask Name the outcome recorded for CC[C@H]1CN2CCc3cc(OC)c(OC)cc3[C@H]2C[C@@H]1C[C@@H]1NCCc2cc(OC)c(OC)cc21 in the assay.
-- reply 1

-- ask Name the outcome recorded for Nc1ccn([C@@H]2CS[C@H](CO)O2)c(=O)n1 in the assay.
-- reply 0

-- ask Name the outcome recorded for CN1c2cc(O)c(N=NC(N)=O)cc2CC1S(=O)(=O)O (stereo not given) in the assay.
-- reply 0

-- ask Name the outcome recorded for Nc1ccn([C@@H]2O[C@H](CO)[C@H](O)C2(F)F)c(=O)n1 in the assay.
-- reply 1

We now examine a further molecule.
-- ask Name the outcome recorded for COc1c(N2C[C@@H]3CCCN[C@H]3C2)c(F)cc2c(=O)c(C(=O)O)cn(C3CC3)c12 in the assay.
-- reply 0

* * *

- System: P93_24
- Method Summary: qHTS profiling for inhibitors of Plasmodium falciparum proliferation (AID 504749); further: nearly all actives have a fitted effect of over 60% in size
- Assay Conditions: P. falciparum in erythrocytes, SYBR Green DNA, 72 h; series mostly up to 28.7 µM
Records with an inconclusive call do not appear. Active and inactive are the calls of the source. Calls come from the whole dose curve; as a rule, active = well fitted inhibition curve with a large enough effect; inconclusive = small, poorly fitted or top-dose-only effect; inactive = flat fitted curve, though single readings scatter.
Tick one outcome: active, inactive

-- ask Name the outcome recorded for COC(=O)C[C@](O)(CCCC(C)(C)O)C(=O)O[C@@H]1C(OC)=C[C@]23CCCN2CCc2cc4c(cc2[C@H]13)OCO4 in the assay.
-- reply active

More entries:
-- ask Name the outcome recorded for C[C@H]1C[C@@H]2[C@@H]([C@@H](O)C[C@@]3(C)[C@H]2CC[C@]3(O)C(=O)CO)[C@@]2(C)C=CC(=O)C=C12 in the assay.
-- reply inactive

-- ask Name the outcome recorded for COC(=O)C1=C(C)NC(C)=C(C(=O)OCCN2CCN(C(c3ccccc3)c3ccccc3)CC2)C1c1cccc([N+](=O)[O-])c1 (stereo unspecified) in the assay.
-- reply active

-- ask Name the outcome recorded for Nc1ccn([C@@H]2CS[C@H](CO)O2)c(=O)n1 in the assay.
-- reply inactive

-- ask Name the outcome recorded for CC1(C)O[C@@H]2C[C@@H]3[C@H]4C[C@@H](F)C5=CC(=O)C=C[C@]5(C)[C@@]4(F)[C@@H](O)C[C@]3(C)[C@]2(C(=O)CO)O1 in the assay.
-- reply inactive

-- ask Name the outcome recorded for CC[C@H]1CN2CCc3cc(OC)c(OC)cc3[C@H]2C[C@@H]1C[C@@H]1NCCc2cc(OC)c(OC)cc21 in the assay.
-- reply active

* * *

- Tested on: Zika virus NS2B-NS3 protease (linked construct)
- Method Summary: Primary screen NINDS Rhodamine qHTS for Zika virus inhibitors (AID 1347160); further: nearly all actives have a fitted effect of over 55% in size
- Assay Conditions: purified NS2B-NS3 protease, Rhodamine110 substrate fluorescence; series mostly up to 57.1 µM
Records with an inconclusive call do not appear. Calls of active or inactive are those of the source. Calls come from the whole dose curve; as a rule, active = well fitted inhibition curve with a large enough effect; inconclusive = small, poorly fitted or top-dose-only effect; inactive = no such curve, though single readings can be large or run the other way.
Tick one outcome: active, inactive

-- ask Name the outcome recorded for Nc1cccc(-c2cc3c(Oc4cccc(O)c4)ncnc3[nH]2)c1 in the assay.
-- reply inactive

-- ask Name the outcome recorded for Cc1cc(Nc2cc(CN3CCOCC3)c3nc(C)c(Cc4ccc(Cl)cc4F)n3n2)n[nH]1 in the assay.
-- reply inactive

-- ask Name the outcome recorded for N#Cc1c(O)c2c(-c3ccc(-c4ccccc4O)cc3)csc2[nH]c1=O in the assay.
-- reply active

-- ask Name the outcome recorded for COc1cc2c(Nc3ccc(NC(=O)c4ccccc4)cc3)ncnc2cc1OCCCN1CCOCC1 in the assay.
-- reply inactive

More entries:
-- ask Name the outcome recorded for CCS(=O)(=O)c1cccc(-c2cc(C(=O)NC3CCN(C)CC3)c(C)c3[nH]c4ncc(C)cc4c23)c1 in the assay.
-- reply inactive

-- ask Name the outcome recorded for COC(=O)Nc1ccc(-c2nc(N3CCOCC3)c3cnn(C4CCN(Cc5cccnc5)CC4)c3n2)cc1 in the assay.
-- reply inactive

Sourced from PubChem BioAssay (NCATS)
